- measured.on: T1, Rapsn-EGFP, purified ( (the printed UniProt entry …, UniProt P12672 1-412))
- T1 sequence (looked up): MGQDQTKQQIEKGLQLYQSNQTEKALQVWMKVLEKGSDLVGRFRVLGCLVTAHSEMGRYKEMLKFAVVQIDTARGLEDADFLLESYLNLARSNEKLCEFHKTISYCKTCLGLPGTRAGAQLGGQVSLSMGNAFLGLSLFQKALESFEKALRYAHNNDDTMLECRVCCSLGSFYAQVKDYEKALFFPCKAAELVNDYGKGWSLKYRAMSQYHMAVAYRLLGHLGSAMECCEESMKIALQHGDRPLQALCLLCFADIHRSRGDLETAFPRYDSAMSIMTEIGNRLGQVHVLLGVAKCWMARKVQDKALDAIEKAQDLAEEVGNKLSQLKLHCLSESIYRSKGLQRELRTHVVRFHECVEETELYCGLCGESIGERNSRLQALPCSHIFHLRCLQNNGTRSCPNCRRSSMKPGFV
- test.protocol: co-condensation into droplets
test.readout: binding result

GST-AChR-β (loop between 3rd and 4th transmembrane domains) (domain or fragment, UniProt P09690 333-469, looked up, CF555 label (Mix-n-Stain CF555)) HHRSPHTHQMPFWVRQIFIHKLPPYLGLKRPKPERDQLPEPHHSLSPRSGWGRGTDEYFIRKPPSDFLFPKLNRFQPESSAPDLRRFIDGPTRAVGLPQELREVISSISYMARQLQEQEDHDALKEDWQFVAMVVDR	binds
